- Test system: SW 1271 complex spheroids, viability
- assay name: Anticancer human tumor SW 1271 cell line growth inhibition [LSD1];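 further: spheroids exposed to agents for 7 days before luminescence read; 100% = DMSO vehicle control viability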
- test conditions: second compound 10 µM; first compound 3.16 µM; stronger effect = lower value
# viability, T/C per entry
Please reply with the bare figure in % and do not write the unit itself.

These recorded examples may help you get a feel for the data.
O=C(c1cc(Cc2n[nH]c(=O)c3ccccc23)ccc1F)N1CCN(C(=O)C2CC2)CC1 + NC1CCC(NC2CC2c2ccccc2)CC1 ... 78.1
CC1(C)CCC(CN2CCN(c3ccc(C(=O)NS(=O)(=O)c4ccc(NCC5CCOCC5)c([N+](=O)[O-])c4)c(Oc4cnc5[nH]ccc5c4)c3)CC2)=C(c2ccc(Cl)cc2)C1 + NC1CCC(NC2CC2c2ccccc2)CC1 ... 34.3
CC(C)c1c(-c2ccccc2)nc2c(C#N)c[nH]n2c1=O + NC1CCC(NC2CC2c2ccccc2)CC1 ... 65.8

### Prompt // query viability, T/C value for entry COc1ccc([C@@H](O)c2cc(-c3ncnc4cc(N5CCOCC5)ccc34)c(F)cc2Cl)nn1 + NC1CC1c1ccc(-c2cccc(O)c2)cc1
### Response 27.5

---

- Test system: SW 1271 complex spheroids, viability
- assay name: Anticancer human tumor SW 1271 cell line growth inhibition [LSD1]; active = viability on the fitted dose curve at most 10% of control; inactive = the rest;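 further: spheroids exposed to agents for 7 days before luminescence read; 100% = DMSO vehicle control viability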
- test conditions: second compound 10 µM; first compound 0.0316 µM
Choose the fitting class; nothing outside y (active), n (inactive) is accepted.

CC[C@@]1(O)C(=O)OCc2c1cc1n(c2=O)Cc2cc3c(CN(C)C)c(O)ccc3nc2-1 + NC1CCC(NC2CC2c2ccccc2)CC1 ... n
Nc1ncn(C2CC(O)C(CO)O2)c(=O)n1 (configuration not stated) + NC1CCC(NC2CC2c2ccccc2)CC1 ... n
CC1(C)CCC(CN2CCN(c3ccc(C(=O)NS(=O)(=O)c4ccc(NCC5CCOCC5)c([N+](=O)[O-])c4)c(Oc4cnc5[nH]ccc5c4)c3)CC2)=C(c2ccc(Cl)cc2)C1 + NC1CCC(NC2CC2c2ccccc2)CC1 ... n

### Prompt Per the records of this test, what outcome belongs to CC(C)CC(NC(=O)CNC(=O)c1cc(Cl)ccc1Cl)B1OC(=O)CC(CC(=O)O)(C(=O)O)O1 (configuration not stated) + NC1CCC(NC2CC2c2ccccc2)CC1 ?
### Response y

### Prompt Further, for CC(C)c1c(-c2ccccc2)nc2c(C#N)c[nH]n2c1=O + NC1CC1c1ccc(-c2cccc(O)c2)cc1 ?
### Response n

### Prompt Then this compound: Cn1ncnc1C1c2n[nH]c(=O)c3cc(F)cc(c23)NC1c1ccc(F)cc1 (configuration not stated) + NC1CCC(NC2CC2c2ccccc2)CC1
### Response n

### Prompt Same question, CC1COCCN1c1cc(C2(S(C)(=N)=O)CC2)nc(-c2ccnc3[nH]ccc23)n1 (configuration not stated) + NC1CCC(NC2CC2c2ccccc2)CC1 this time
### Response n

### Prompt Here is the next compound: CC1COCCN1c1cc(-c2ccnn2C)c2ccnc(-c3ccn[nH]3)c2n1 (configuration not stated) + NC1CC1c1ccc(-c2cccc(O)c2)cc1
### Response n

### Prompt Same for COc1ccc([C@@H](O)c2cc(-c3ncnc4cc(N5CCOCC5)ccc34)c(F)cc2Cl)nn1 + NC1CCC(NC2CC2c2ccccc2)CC1
### Response n

### Prompt And what about the compound O=C(c1cc(Cc2n[nH]c(=O)c3ccccc23)ccc1F)N1CCN(C(=O)C2CC2)CC1 + NC1CCC(NC2CC2c2ccccc2)CC1 ?
### Response n

### Prompt Continue with Nc1ncn(C2CC(O)C(CO)O2)c(=O)n1 (configuration not stated) + NC1CC1c1ccc(-c2cccc(O)c2)cc1
### Response n

### Prompt For COc1cc(Nc2ncc3c(n2)-c2ccc(Cl)cc2C(c2c(F)cccc2OC)=NC3)ccc1C(=O)O + NC1CC1c1ccc(-c2cccc(O)c2)cc1 then?
### Response n

# credit: PubChem BioAssay AID1918941
